- TEST_NAME: Potentiometric titration of an aqueous solution
- Type: physicochemical
- CONDITIONS_USED: water, 0.1M sodium hydroxide, read-out: apparent pKa of weak acid group
OBSERVATION_TYPE: pKa

// query Would you kindly share the measured pKa for Nc1ncnc2c1ncn2C1OC(CC(N)CCC(N)C(=O)O)C(O)C1O (stereo not shown) ?
// result 9.8

====

- TEST_NAME: Potentiometric titration of an aqueous solution
- Assay type: physicochemical
- CONDITIONS_USED: water, 0.1M hydrochloric acid, read-out: apparent pKa of basic group
pKa: recorded values
API note: the answer field is a bare number with no unit suffix.

// query Which pKa is reported for this compound? Nc1ncnc2c1ncn2C1OC(CC2CCC(N)C(=O)N2)C(O)C1O (centres unmarked)
// result 7.7

// query // lookup pKa for Nc1ncnc2c1ncn2C1OC(CC(N)CCC(N)C(=O)O)C(O)C1O (centres unmarked)
// result 8.1
